target: T1, Aβ oligomers prepared from Amyloid β-protein, Human 1-42 peptide (human, UniProt P05067 672-713); experiment: SPR (Biacore T100), Aβ oligomers amine-coupled to CM5 chip, antibody injected, Bivalent Analyte model (kd1/ka1)
T1 construct: domain: Amyloid β-protein 1-42; Oligomeric preparation (HFIP, DMSO, acetic acid solution pH 4.5, overnight at 4 °C); Amine-coupled to a CM5 chip; also called amyloid β oligomer
T1 sequence (P05067 672-713 limits assumed): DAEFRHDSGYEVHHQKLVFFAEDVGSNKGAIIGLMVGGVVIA

binder | Kd / nM
anti-Aβ oligomer humanized antibody HV0LV0 (antibody, V domains shown, purified on Prosep vA; also called HV0LVV0; 4H5HV0 + 4H5LV0) VH: DVQLVESGGGVVQPGRSLRLSCAASGFTFSSFGMHWVRQAPGKGLQWMVYISSGSSTIYYADTVKGRFTISRDNSRSTLFLQMNSLRGEDTAVYYCARTGTRAYWGQGTLVTVSS VL: DIVMTQSPLSLPVTPGEPASISCRSSQSIVHSNGNTYLEWYLQKPGQSPQLLIYKVSNRFSGVPDRFSGSGSGTDFTLKISRVEAEDVGVYYCFQGSHVPPTFGQGTKLEIK | 100
anti-Aβ oligomer humanized antibody HV6LV3 (antibody, V domains shown) VH: DVQLVESGGGVVQPGRSLRLSCAASGFTFSSFGMHWVRQAPGKGLEWVAYISSGSSTIYYADTVKGRFTISRDNSRNTLFLQMNSLRGEDTAMYYCAGTGTRAYWGQGTLVTVSS VL: DVVMTQSPLSLPVTLGEPASISCRSSQSIVHSNGNTYLEWYLQKPGQSPKLLIYKVSNRFSGVPDRFSGSGSGTDFTLKISRVEAEDVGVYYCFQGSHVPPTFGQGTKLEIK | 110
anti-Aβ oligomer humanized antibody HV5aLV1b (antibody, V domains shown) VH: DVQLVESGGGVVQPGRSLRLSCAASGFTFSSFGMHWVRQAPGKGLEWVAYISSGSSTIYYADTVKGRFTISRDNSRSTLFLQMNSLRGEDTAMYYCAGTGTRAYWGQGTLVTVSS VL: DIVMTQSPLSLPVTLGEPASISCRSSQSIVHSNGNTYLEWYLQKPGQSPQLLIYKVSNRFSGVPDRFSGSGSGTDFTLKISRVEAEDVGVYYCFQGSHVPPTFGQGTKLEIK | 90
anti-Aβ oligomer humanized antibody HV5aLV0 (antibody, V domains shown, also called HV5aVL0) VH: DVQLVESGGGVVQPGRSLRLSCAASGFTFSSFGMHWVRQAPGKGLEWVAYISSGSSTIYYADTVKGRFTISRDNSRSTLFLQMNSLRGEDTAMYYCAGTGTRAYWGQGTLVTVSS VL: DIVMTQSPLSLPVTPGEPASISCRSSQSIVHSNGNTYLEWYLQKPGQSPQLLIYKVSNRFSGVPDRFSGSGSGTDFTLKISRVEAEDVGVYYCFQGSHVPPTFGQGTKLEIK | 55

Value source: patent US20120009180A1
